- SUBJECT_OF_TEST: Der pI (Dermatophagoides pteronyssinus)
- Construct: tissue SmithKline-Beecham, U.K (crude mite extract); host or cells: crude house dust mite extract
- Sequence (P08176 99-320): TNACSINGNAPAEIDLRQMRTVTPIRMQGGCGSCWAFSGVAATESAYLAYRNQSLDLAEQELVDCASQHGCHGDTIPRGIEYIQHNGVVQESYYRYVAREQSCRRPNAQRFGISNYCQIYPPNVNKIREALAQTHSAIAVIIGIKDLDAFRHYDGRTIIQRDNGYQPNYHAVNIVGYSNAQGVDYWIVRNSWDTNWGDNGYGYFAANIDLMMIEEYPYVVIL
- ASSAY_PROCEDURE: Der pI substrate assay with FRET peptides (fluorescence, Km, kcat/Km)
- Format: biochemical, house dust mite
- Design: key: NS indicates that the peptide was not hydrolysed by Der pI.; NM indicated that the peptide was a substrate for Der pI, but the Km was not measured.; NM^a indicates that the peptide was a substrate for Der pI, and its cleavage was followed by HPLC-MS showing hydrolysis to occur between-Nle-Ser-
- TEST_CONDITIONS: purified Der pI; peptides SEQ ID Nos. 1-76
Non-standard residues stand in square brackets, D forms with d. Residues, ends and D or L forms follow the SMILES beside them. *: point of attachment. Tyr(3-NO2) = N[C@@H](Cc1ccc(O)c([N+](=O)[O-])c1)C(=O)O; Benzoyl(2-COOH) = O=C(O)c1ccccc1C(=O)*; Nle = CCCC[C@H](N)C(=O)O
QUANTITY_NAME: substrate or not substrate for Der pI (symbols in Measured Km)

INSERT INTO results (molecule, value_observed) VALUES
  ('CCCC[C@H](NC(=O)[C@H](C)NC(=O)[C@@H](N)C(C)C)C(=O)N[C@@H](CO)C(=O)N[C@@H](Cc1ccc(O)c([N+](=O)[O-])c1)C(N)=O [H-Val-Ala-Nle-Ser-Tyr(NO2)-NH2] (H-VA[Nle]S[Tyr(3-NO2)]-NH2)', 'NS'),
  ('CCCC[C@H](NC(=O)[C@H](C)NC(=O)[C@@H](NC(=O)c1ccccc1C(=O)O)C(C)C)C(=O)N[C@@H](CO)C(=O)N[C@@H](Cc1ccc(O)c([N+](=O)[O-])c1)C(N)=O ({Benzoyl(2-COOH)}-VA[Nle]S[Tyr(3-NO2)]-NH2)', 'NM^a');

Hey, just so you know, these numbers are from patent US6528275B1.
